# STUDY_TARGET: HLA-C*15:02
# PROCEDURE_SUMMARY: IEDB peptide-MHC binding, purified MHC/direct/fluorescence; filed as Kd, often an IC50 or EC50 that approximates it; bounds were set here for any values at or beyond the usual limits of such assays
# RECORDED_CONDITIONS: source organism: Burkholderia pseudomallei 1710b
ASSAY_ENDPOINT: pKd
Interpret pKd as the negative base-10 log of the concentration measured in mol/L.

KTADVTVVF yielded pKd of 6.60

====

I'd appreciate it if you could supply pKd values for the items below.
# STUDY_TARGET: HLA-B*15:17
# PROCEDURE_SUMMARY: IEDB peptide-MHC binding, purified MHC/competitive/fluorescence; filed as Kd, often an IC50 or EC50 that approximates it; bounds were set here for any values at or beyond the usual limits of such assays
# RECORDED_CONDITIONS: source organism: Human immunodeficiency virus 1
Interpret pKd as the negative base-10 log of the concentration measured in mol/L.

GSEEIKSLF yielded pKd of 6.74

KSLYNTVATLY yielded pKd of 8.19
